Values were extracted from the Deep4Chem optical property database.

# absorption maximum listing for each entry below
test.description: solvent given as SMILES
assay.context: in ClCCl
parameter: absorption maximum (nm)

N#C/C(=N/Nc1ccc(C#N)cc1)c1nc(-c2ccccc2)cs1
399
COC(=O)c1cc(=O)n(C)c2cc(-c3cc(OC)c(OC)c(OC)c3)sc12
400
COc1ccccc1C1=[N+]2C(=C(c3ccccc3)c3c4ccccc4c(-c4ccccc4OC)n3[B-]2(F)F)c2ccccc21
617
CCCCCCOc1ccc(C#Cc2ccc(C#CC#Cc3ccc(C#Cc4ccc(OCCCCCC)c(OCCCCCC)c4)c4nsnc34)c3nsnc23)cc1OCCCCCC
469
Cn1cc(-c2nc3ccccc3nc2C#Cc2ccc(C#N)cc2)c2ccccc21
418
F[B-]1(F)N2C=CN=CC2=[N+]2[N+]1=Cc1c(-c3ccccc3)cc(-c3cccs3)n1[B-]2(F)F
533
Cc1cc(C)c(B2c3cc(C)ccc3N3c4ccc(C)cc4B(c4c(C)cc(C)cc4C)c4cc(C)cc2c43)c(C)c1
457
Cc1ccc(OCc2cc(=O)oc3c2ccc2ccccc23)cc1
354
CC1=N/C(=C\c2ccccc2N(C)C)C(=O)N1C
396
CCN(CC)c1cccc(C=O)c1
382
c1ccc(-c2c3c(c(-c4ccccc4)c4cc5ccccc5cc24)Cc2c(c(-c4ccccc4)c4cc5ccccc5cc4c2-c2ccccc2)C3)cc1
392
CCOC(=O)COc1ccc(/C=C/C2=[N+]3C(=Cc4c5ccccc5c(-c5[nH]c(C)cc5C)n4[B-]3(F)F)C(C)=C2)cc1
680
F[B-]1(F)n2c(-c3cccs3)cc(-c3ccccc3)c2N=C2C(c3ccccc3)=CC(c3cccs3)=[N+]21
718
COc1cc2c(cc1/C=C/C1=CC(=C(C#N)C#N)CC(C)(C)C1)c1ccccc1n2C
478
[O-][n+]1c(-c2ccc(Br)cc2)cc(N2CCOCC2)nc1/C=C/c1ccccc1
445
c1ccc2c(-c3cc4c(ccc5sccc54)s3)cccc2c1
307
CC1(C)c2ccccc2N(c2ccc(-c3nc(-c4ccccn4)n(-c4ccc(N5c6ccccc6C(C)(C)c6ccccc65)cc4)n3)cc2)c2ccccc21
375
CN(C)c1ccc(/C=C/C=C2\CC/C(=C\c3ccc(N(C)C)cc3)C2=O)cc1
484
CN(C)c1ccc(/C=C2\CC/C(=C\c3ccc(C#N)cc3)C2=O)cc1
464
